The origin of these recorded values is patent US7524853B2.

- Assayed system: 17β-hydroxysteroid dehydrogenase type 3 (17β-HSD type 3) (Homo sapiens)
- Construct: expressed in transfected cells; host or cells: MCF-7
- Sequence (P37058 1-310): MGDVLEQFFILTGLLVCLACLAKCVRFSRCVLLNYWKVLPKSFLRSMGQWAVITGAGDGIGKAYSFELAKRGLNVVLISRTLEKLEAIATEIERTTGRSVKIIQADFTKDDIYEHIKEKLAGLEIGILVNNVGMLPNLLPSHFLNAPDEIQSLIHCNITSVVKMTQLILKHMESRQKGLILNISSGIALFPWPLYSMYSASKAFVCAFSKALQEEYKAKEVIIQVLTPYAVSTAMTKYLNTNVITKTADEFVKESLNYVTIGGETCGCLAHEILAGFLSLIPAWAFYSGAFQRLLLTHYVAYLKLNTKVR
- Experimental details: Inhibition of 17β-HSD type 3 in MCF-7 cells stably expressing the isoenzyme (tritium labeled androstenedione conversion, HPLC)
- Assay type: cell-based
- Test conditions: MCF7; 10 μM test compound; MCF-7 cells expressing 17β-HSD type 3; 2 nM tritium labeled androstenedione; read-out: % Inhibition HSD3 10 μM
Catalogue of inhibition at 10 µM readings, one per entry.
The answer consists of two parts: a number and, after it, its unit.

COc1cc(-c2nc3sc4c(c3c(=O)n2Cc2ccccc2)C(C)CCC4=O)cc(OC)c1OC (stereo not drawn) [No. 684]    10.5%
COc1cc(-c2nc3sc4c(c3c(=O)n2Cc2ccccc2)CCC(C=O)=C4Oc2ccccc2)cc(OC)c1OC [No. 4]    6.5%
COc1cc(-c2nc3sc4c(c3c(=O)n2Cc2ccccc2)CCC(C=O)=C4Cl)cc(OC)c1OC [No. 3]    29.1%
O=c1c2c(nc(-c3cccs3)n1CCO)sc1c(O)c(Br)ccc12 [No. 149]    59.8%
Cc1nc2sc3c(c2c(=O)n1-c1ccccc1)CCC(Br)(Br)C3=O [No. 45]    4.1%
COc1cccc(-c2nc3sc4c(c3c(=O)n2Cc2ccccc2)CCCC4)c1 [No. 78]    27.6%
COc1cc(-c2nc3sc4c(OC)cccc4c3c(=O)n2Cc2ccccc2)cc(OC)c1OC [No. 138]    23%
COCc1nc2sc3c(c2c(=O)n1Cc1ccccc1)CCCC3=O [No. 31]    10.8%

Data request: inhibition at 10 µM lookup needed for CCCCn1c(-c2cc(OC)c(OC)c(OC)c2)nc2sc3c(O)c(Br)ccc3c2c1=O [No. 90] , thanks.
Data returned: 11.3%

---

- Assayed system: 17β-hydroxysteroid dehydrogenase type 1 (17β-HSD type 1) (Homo sapiens, UniProt P14061)
- Construct: expressed in transfected cells; host or cells: MCF-7
- Sequence (P14061 whole entry): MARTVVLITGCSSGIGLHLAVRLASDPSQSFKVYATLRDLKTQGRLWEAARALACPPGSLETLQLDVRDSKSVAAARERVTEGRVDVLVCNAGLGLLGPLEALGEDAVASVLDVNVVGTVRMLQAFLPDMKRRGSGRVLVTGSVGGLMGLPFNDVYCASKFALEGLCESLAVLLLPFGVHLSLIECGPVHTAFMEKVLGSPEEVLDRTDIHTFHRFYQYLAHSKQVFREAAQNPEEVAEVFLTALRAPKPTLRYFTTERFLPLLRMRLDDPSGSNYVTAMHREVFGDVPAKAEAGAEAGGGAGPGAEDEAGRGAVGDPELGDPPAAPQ
- Experimental details: Inhibition of 17β-HSD type 1 in MCF-7 cells stably expressing the isoenzyme (tritium labeled estrone conversion, HPLC)
- Assay type: cell-based
- Test conditions: MCF7; 10 μM test compound; MCF-7 cells expressing 17β-HSD type 1; 2 nM tritium labeled estrone; read-out: % Inhibition HSD1 10 μM
Documented inhibition at 10 µM across a set of compounds
# number only, unit % dropped from output

// worked examples, inhibition at 10 µM included
COc1cc(-c2nc3sc4c(O)cccc4c3c(=O)n2Cc2ccc(Br)o2)cc(OC)c1OC [No. 122]    49
COc1cc(-c2nc3sc4c(c3c(=O)n2Cc2ccccc2)CCC(Br)C4=O)c(Br)c(OC)c1OC (stereo not shown) [No. 47]    63.2
CCCCn1c(-c2cc(OC)c(OC)c(O)c2Br)nc2sc3c(O)c(Br)c(C)cc3c2c1=O [No. 699]    7.3

Now, please, on to the next compound.
Data request: If you can, please state the reported inhibition at 10 µM value of COC(=O)Cc1nc2sc3c(c2c(=O)n1Cc1ccccc1)CCCC3 [No. 26] .
Data returned: 37.4
